Every entry's value here was drawn from PubChem BioAssay (NCATS).

- assay.text: Drug repurposing screens with cells derived from glioblastoma tumor samples (AID 1345199); further: on the % scale 0 is the no-effect control and ±100 the full control effect; nearly all actives have a fitted effect of over 40% in size
- experimental.context: GBM patient neurospheres viability, ATP luminescence, 48 h; at 45.9 µM (top of the series); tumour line B
Results filed as inconclusive are left out. Activity calls are given as the source filed them. The call rests on the fitted dose curve; in most records, active means well fitted inhibition curve with a large enough effect; inconclusive means small, poorly fitted or top-dose-only effect; inactive means flat fitted curve, though single readings scatter.
property.measured: activity, negative = cell killing

Quick one: activity, negative = cell killing for Cc1c(N(C)C)c(=O)n(-c2ccccc2)n1C ? -5.14% (inactive)

Which activity, negative = cell killing reading was recorded for the molecule O=C(Cn1ccnc1[N+](=O)[O-])NCc1ccccc1 ? 4.79% (inactive)

// activity, negative = cell killing lookup, key: CC(=O)N(CC(O)CO)c1c(I)c(C(=O)NCC(O)CO)c(I)c(C(=O)NCC(O)CO)c1I (stereo not drawn) -2.73% (inactive)

Entry CC(=O)N[C@@H](CC(C)C)C(=O)O has what activity, negative = cell killing? -11.1% (inactive)

# activity, negative = cell killing lookup, item CC(C)=CCC[C@@](C)(O)[C@H]1CC=C(C)CC1 -3.12% (inactive)

What value of activity, negative = cell killing has been recorded for this entry: CCCCCOC(=O)Nc1nc(=O)n([C@@H]2O[C@H](C)[C@@H](O)[C@H]2O)cc1F 3.4% (inactive)

Form field: reported activity, negative = cell killing of O=c1[nH]cnc2nc[nH]c12 -0.606% (inactive)

// activity, negative = cell killing lookup, key: CC(N)CCCC(C)(C)O (stereo not drawn) -8.17% (inactive)

* * *

- assay.text: Drug repurposing screens with cells derived from glioblastoma tumor samples (AID 1345199); further: on the % scale 0 is the no-effect control and ±100 the full control effect; nearly all actives have a fitted effect of over 40% in size
- experimental.context: GBM patient neurospheres viability, ATP luminescence, 48 h; at 45.9 µM (top of the series); tumour line B
Inconclusive results are not listed.
property.measured: activity, negative = cell killing (%)
Respond with the bare value in %.

For CN1CCCN=C1COC(=O)C(O)(c1ccccc1)C1CCCCC1 (stereo not given) , what is its reported activity, negative = cell killing? -22.5

Please look up its activity, negative = cell killing: O=C1c2ccccc2C(=O)C1c1ccc(Br)cc1 -20.2

GET /values?readout=activity, negative = cell killing&item= Cc1cc(OI)c(C(C)C)cc1-c1cc(C(C)C)c(OI)cc1C -6.87

Request the reported activity, negative = cell killing associated with O=C(O)CCCc1ccccc1 -2.94

// lookup activity, negative = cell killing for CC(=O)NS(=O)(=O)c1ccc(N)cc1 -8.29

Name the reported activity, negative = cell killing value associated with the compound COC(=O)c1ccccc1C(=O)c1ccc(OCCN2CCCCC2)cc1 -26.9

Entry Cc1ncc(CO)c(CN)c1O has what activity, negative = cell killing? 0.478

Look up activity, negative = cell killing for this compound: CC(C(=O)O)c1ccc2c(c1)Cc1cccnc1O2 (stereo not given) 1.78

Entry CCCCCCCCCCOc1cc2c(=O)c(C(=O)OCC)c[nH]c2cc1OCC has what activity, negative = cell killing? 2.17

Fill in: activity, negative = cell killing of COc1nccnc1NS(=O)(=O)c1ccc(N)cc1 is ___ 0.463

What activity, negative = cell killing value was documented for this compound, CCCCCCCC(=O)OCC(COC(=O)CCCCCCC)OC(=O)CCCCCCC ? -10.1

Given the compound O=C(O)Cc1cn(-c2ccccc2)nc1-c1ccc(Cl)cc1 , what is its reported activity, negative = cell killing? -17.9

Consider the compound shown here: Cc1c(Cn2ccnc2)c2ccccc2n1CCC(=O)O What is its recorded activity, negative = cell killing? 1.3

# input compound: Cc1cc(C)nc(NS(=O)(=O)c2ccc(N)cc2)n1 ; wanted: its activity, negative = cell killing -8.37

// lookup activity, negative = cell killing for NC(=O)CC[C@@H](N)C(=O)O -5.88

* * *

- assay.text: Drug repurposing screens with cells derived from glioblastoma tumor samples (AID 1345199); further: on the % scale 0 is the no-effect control and ±100 the full control effect; nearly all actives have a fitted effect of over 40% in size
- experimental.context: GBM patient neurospheres viability, ATP luminescence, 48 h; at 46 µM (top of the series); tumour line A
Inconclusive results are not listed. The source made the active and inactive calls. Calls come from the whole dose curve; as a rule, active = well fitted inhibition curve with a large enough effect; inconclusive = small, poorly fitted or top-dose-only effect; inactive = flat fitted curve, though single readings scatter.
property.measured: activity, negative = cell killing

So what does the record say about activity, negative = cell killing for CC(=O)NCc1c(I)c(NC(C)=O)c(I)c(C(=O)O)c1I ? -20.1% (inactive)

# query: activity, negative = cell killing of entry CCN(CC)CCOC(=O)C(c1ccccc1)c1ccccc1 -25.1% (inactive)

Dear colleague, I am looking for the recorded activity, negative = cell killing of the following compound: OCCN1C[C@H](O)[C@@H](O)[C@H](O)[C@H]1CO -17.7% (inactive)

Query (compound): O=C1C(c2[nH]c3ccccc3c2O)=Nc2ccccc21 ; field requested: activity, negative = cell killing -34.1% (inactive)

Entry under review: O=C(O)CCC(=O)O . Reported activity, negative = cell killing? -19% (inactive)

// returns reported activity, negative = cell killing for input CC(=O)OC[C@H]1O[C@@](COC(C)=O)(O[C@H]2O[C@H](COC(C)=O)[C@@H](OC(C)=O)[C@H](OC(C)=O)[C@H]2OC(C)=O)[C@@H](OC(C)=O)[C@@H]1OC(C)=O -28.7% (inactive)

# get_value(readout='activity, negative = cell killing', item= O=C(O)c1ccccc1OP(=O)(O)O ) -28.4% (inactive)

Consider the compound Cc1cc(C)nc(NS(=O)(=O)c2ccc(N)cc2)n1 and give its measured activity, negative = cell killing. -19.9% (inactive)

Returns the measured activity, negative = cell killing for the input compound. Input: NC(=O)N[C@@H](CCC(=O)O)C(=O)O -22.8% (inactive)

# lookup: activity, negative = cell killing of CC(=O)N[C@@H](CC(C)C)C(=O)O -21.1% (inactive)

* * *

So I've got a bunch of compounds here, and I need their activity, negative = cell killing values.
- assay.text: Drug repurposing screens with cells derived from glioblastoma tumor samples (AID 1345199); further: on the % scale 0 is the no-effect control and ±100 the full control effect; nearly all actives have a fitted effect of over 40% in size
- experimental.context: GBM patient neurospheres viability, ATP luminescence, 48 h; at 45.9 µM (top of the series); tumour line B
Records with an inconclusive call do not appear.
Answer format: numeric, % implied, no suffix.

Given O=C(O)CCCCC1CCSS1 (configuration not stated) , state its recorded activity, negative = cell killing. -9.35

Report activity, negative = cell killing for O=C1c2ccccc2S(=O)(=O)N1CCCCN1CCN(c2ncccn2)CC1 please. 1.94

Requested read-out: activity, negative = cell killing. Entry: CNCc1ccccc1 -13

If you can, please state the reported activity, negative = cell killing value of CC1(C)S[C@@H]2[C@H](N=CN3CCCCCC3)C(=O)N2[C@H]1C(=O)O . 0.648

Which activity, negative = cell killing reading was recorded for the compound C/C(=C(\CCO)SS/C(CCO)=C(\C)N(C=O)Cc1cnc(C)nc1N)N(C=O)Cc1cnc(C)nc1N ? 0.803

I would be grateful if you could share the reported activity, negative = cell killing for Nc1c2c(nc3c1CCC3)CCCC2 . -2.28

Item Nc1ccc(S(=O)(=O)c2ccc(N)cc2)cc1 has what recorded activity, negative = cell killing? -14.4

Name the reported activity, negative = cell killing value associated with the compound NS(=O)(=O)c1ccc(NC(=O)CCC(=O)O)cc1 -12.7

Returns the measured activity, negative = cell killing for the input compound. Input: FC(F)(F)C(Cl)Br (configuration not stated) -5.12

What does the record list as activity, negative = cell killing for OCC(O)CS (configuration not stated) ? -7.05

I would be grateful if you could share the reported activity, negative = cell killing for O=S1(=O)OC(c2ccc(O)cc2)(c2ccc(O)cc2)c2ccccc21 . -17.4

Which value of activity, negative = cell killing has been reported for CN1C[C@@H]2C[C@H]1CN2c1cc2c(cc1F)c(=O)c(C(=O)O)cn2C1CC1 in the records? 4.99

Which activity, negative = cell killing reading was recorded for the compound CC[C@]12CCCN3CCc4c(n(c5ccccc45)[C@@](O)(C(=O)OC)C1)[C@@H]32 ? -12.1

Would you kindly share the measured activity, negative = cell killing for C[N+](C)(C)CC(O)CC(=O)[O-] (configuration not stated) ? -2.63

# lookup: activity, negative = cell killing of CCCCCCCC(=O)OCC(O)CO (configuration not stated) -0.0604

Look at this compound and give its reported activity, negative = cell killing. OC[C@@H](O)[C@@H](O)[C@H](O)[C@H](O)CO -7.17

// activity, negative = cell killing lookup, key: O=C(O)c1ccccc1OP(=O)(O)O -8.79

// returns reported activity, negative = cell killing for input CC(C)c1cc2c(cc1S(=O)(=O)O)[C@@]1(C)CCC[C@@](C)(C(=O)O)[C@@H]1CC2 -17.5

Reported activity, negative = cell killing, compound COc1cc(C(=O)NCCCCCC(=O)O)cc(OC)c1OC : ____ -7.31

Returns the measured activity, negative = cell killing for the input compound. Input: C=CCNC(N)=S -3.35

# activity, negative = cell killing lookup, item CC(=O)Nc1ccc(C(=O)O)cc1 -15.7

Would you kindly share the measured activity, negative = cell killing for CCCCCCCCCCCCCCCCN ? -8.19
